# experimental-target: Human factor Xa (Homo sapiens, UniProt P00742)
# Construct: leads from XII to XIIa to XIa to IXa and to the conversion of X to Xa; purchased Enzyme Research Laboratories, South Bend IN
# Sequence (P00742 235-488 limits assumed): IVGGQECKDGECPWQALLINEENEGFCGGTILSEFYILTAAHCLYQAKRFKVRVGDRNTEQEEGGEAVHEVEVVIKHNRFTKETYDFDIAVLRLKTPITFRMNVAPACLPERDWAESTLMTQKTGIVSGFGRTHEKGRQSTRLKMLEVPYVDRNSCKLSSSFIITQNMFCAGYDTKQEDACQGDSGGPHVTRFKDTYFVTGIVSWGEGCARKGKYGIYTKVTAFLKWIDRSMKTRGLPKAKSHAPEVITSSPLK
# Sequence (P00742 41-179 limits assumed): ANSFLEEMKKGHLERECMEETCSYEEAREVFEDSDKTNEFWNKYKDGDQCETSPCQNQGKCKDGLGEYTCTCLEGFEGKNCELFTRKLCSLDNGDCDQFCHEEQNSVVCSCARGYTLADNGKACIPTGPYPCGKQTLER
# assay-explanation: Xa Assay
# Assay type: biochemical
# condition-notes: % inhibition at 30 µM (cells with % or %@30, bare 0)
measured-property: IC50 or % Inhibition Factor Xa (30 µM) (%)
Provide only the numeric value, understood in %.

compound | experimental-target | unit-spec | IC50 or % Inhibition Factor Xa (30 µM)
N=C(N)c1ccc(CNC(=O)Cn2c(-c3ccccc3)c(Cl)nc(NC3CCCCC3)c2=O)cc1 | Human factor Xa (Homo sapiens, UniProt P00742) | % | 0
Cc1c(Cl)nc(NCCc2ccc(Cl)cc2)c(=O)n1CC(=O)NCc1ccc(C(=N)N)cc1 | Human factor Xa (Homo sapiens, UniProt P00742) | % | 10
N=C(N)c1ccc(CNC(=O)Cn2c(-c3c(Cl)cccc3Cl)c(Cl)nc(NCc3ccccc3)c2=O)cc1 | Human factor Xa (Homo sapiens, UniProt P00742) | % | 0

For the compound N=C(N)c1ccc(CNC(=O)Cn2c(-c3ccccc3)c(Cl)nc(NC3CCCc4ccccc43)c2=O)cc1 (stereo not drawn) , give its measured IC50 or % Inhibition Factor Xa (30 µM) value.
18

For the compound `COc1ccc(-c2c(Cl)nc(NCCc3cccnc3)c(=O)n2CC(=O)NCc2ccc(C(=N)N)cc2)cc1` , give its measured IC50 or % Inhibition Factor Xa (30 µM) value.
11

For the compound `N=C(N)c1ccc(CNC(=O)Cn2c(-c3ccccc3)c(Cl)nc(NCc3c(F)cccc3C(F)(F)F)c2=O)cc1` , give its measured IC50 or % Inhibition Factor Xa (30 µM) value.
6

For the compound `N=C(N)c1ccc(CNC(=O)Cn2c(-c3ccc(Cl)cc3)c(Cl)nc(NCCc3cccc(Cl)c3)c2=O)cc1` , give its measured IC50 or % Inhibition Factor Xa (30 µM) value.
28
